MEASURED TARGET: Abf1 (UniProt P14164)
Sequence: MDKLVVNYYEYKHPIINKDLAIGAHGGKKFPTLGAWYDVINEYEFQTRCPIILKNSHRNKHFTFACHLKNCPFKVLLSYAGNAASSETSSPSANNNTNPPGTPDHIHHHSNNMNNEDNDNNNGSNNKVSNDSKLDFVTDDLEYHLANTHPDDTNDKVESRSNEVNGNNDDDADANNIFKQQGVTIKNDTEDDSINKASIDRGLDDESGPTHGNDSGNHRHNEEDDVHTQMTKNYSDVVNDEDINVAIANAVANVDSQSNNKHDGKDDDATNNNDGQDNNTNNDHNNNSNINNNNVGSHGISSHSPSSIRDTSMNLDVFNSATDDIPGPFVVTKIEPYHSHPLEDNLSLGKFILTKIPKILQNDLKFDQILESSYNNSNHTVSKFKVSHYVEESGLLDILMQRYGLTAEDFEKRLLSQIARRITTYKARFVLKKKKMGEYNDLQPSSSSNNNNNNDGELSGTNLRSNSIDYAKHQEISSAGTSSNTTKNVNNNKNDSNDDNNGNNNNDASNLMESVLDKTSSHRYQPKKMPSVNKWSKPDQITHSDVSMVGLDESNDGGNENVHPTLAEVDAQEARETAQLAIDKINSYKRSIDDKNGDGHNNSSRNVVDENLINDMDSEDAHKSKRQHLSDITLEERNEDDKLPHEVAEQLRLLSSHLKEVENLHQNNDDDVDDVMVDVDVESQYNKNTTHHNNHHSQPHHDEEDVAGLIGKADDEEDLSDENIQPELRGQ
ASSAY PROCEDURE: PBM E-score (8-mer binding enrichment) (E-score (-0.5 to 0.5)); higher = stronger / more preferred TF binding
STATED CONDITIONS: protein concentration: 200 nM; construct: GST-full length
Whole data set: some 33,000 sequences, median “E-score (-0.5 to 0.5)” near -0.015, cut for the highest 2% near 0.3. The sample as a whole holds a higher share of the highest values than the screen did.
PBM E-score values by entry
Reply briefly: the number, and no unit.

- MONOMER SEQUENCE: "CGCCGCGA"
  PBM E-score: 0.0127
- MONOMER SEQUENCE: "CAGATGAC"
  PBM E-score: 0.058

Tell me its PBM E-score given TACGATCA as the entry.
0.208

Consider the sequence TGTATCAA . State its measured PBM E-score.
-0.0209

Please report the measured PBM E-score for GTAAAGAA
0.113

---

MEASURED TARGET: Abf1 (UniProt P14164)
Sequence: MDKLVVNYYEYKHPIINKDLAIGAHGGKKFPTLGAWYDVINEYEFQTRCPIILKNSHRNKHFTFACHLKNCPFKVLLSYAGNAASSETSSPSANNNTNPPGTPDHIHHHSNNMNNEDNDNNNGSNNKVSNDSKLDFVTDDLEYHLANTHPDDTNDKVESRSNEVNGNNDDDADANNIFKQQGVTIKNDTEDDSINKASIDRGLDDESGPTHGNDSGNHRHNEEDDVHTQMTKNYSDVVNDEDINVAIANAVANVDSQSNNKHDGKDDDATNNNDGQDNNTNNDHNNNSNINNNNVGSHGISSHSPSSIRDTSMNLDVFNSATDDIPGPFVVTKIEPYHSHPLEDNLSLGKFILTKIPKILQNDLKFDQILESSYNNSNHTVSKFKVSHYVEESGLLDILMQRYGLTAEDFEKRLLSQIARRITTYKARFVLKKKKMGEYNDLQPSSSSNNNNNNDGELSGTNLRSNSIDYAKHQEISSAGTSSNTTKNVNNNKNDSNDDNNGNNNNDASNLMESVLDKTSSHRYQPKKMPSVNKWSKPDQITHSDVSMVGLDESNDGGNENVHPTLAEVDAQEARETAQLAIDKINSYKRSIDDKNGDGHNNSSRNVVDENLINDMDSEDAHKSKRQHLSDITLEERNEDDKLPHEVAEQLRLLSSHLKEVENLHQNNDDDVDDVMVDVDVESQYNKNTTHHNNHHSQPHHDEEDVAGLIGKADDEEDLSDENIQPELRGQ
ASSAY PROCEDURE: PBM E-score (8-mer binding enrichment) (E-score (-0.5 to 0.5)); higher = stronger / more preferred TF binding
STATED CONDITIONS: protein concentration: 200 nM; construct: GST-full length
Over roughly 33,000 sequences, “E-score (-0.5 to 0.5)” has its median near -0.015; the highest 2% begin near 0.3. The sample as a whole holds a higher share of the highest values than the screen did.
Below, each entry is listed with its recorded PBM E-score.
// print number alone

A selection of reference data follows.
- MONOMER SEQUENCE: "ACGATGCG"
  MEASURED TARGET: "Abf1 (UniProt P14164)"
  PBM E-score: 0.07
- MONOMER SEQUENCE: "AATAGTAC"
  MEASURED TARGET: "Abf1 (UniProt P14164)"
  PBM E-score: 0.132
- MONOMER SEQUENCE: "CCCCGGAC"
  MEASURED TARGET: "Abf1 (UniProt P14164)"
  PBM E-score: -0.105
- MONOMER SEQUENCE: "ACTCTGAT"
  MEASURED TARGET: "Abf1 (UniProt P14164)"
  PBM E-score: 0.043
- MONOMER SEQUENCE: "CAGCGATG"
  MEASURED TARGET: "Abf1 (UniProt P14164)"
  PBM E-score: -0.0769
- MONOMER SEQUENCE: "GTGATACA"
  MEASURED TARGET: "Abf1 (UniProt P14164)"
  PBM E-score: 0.311

// fetch PBM E-score for ATATAATA ; system: Abf1 (UniProt P14164)
0.0977

Report PBM E-score from Abf1 (UniProt P14164) testing of AGATAATA
0.107

Cited source for all entries: the supplement of paper PMC3334620
